- Test system: T-47D breast
- experimentalProtocol: NCI tumour cell line growth inhibition, 48 h
Where a SMILES comes first, the peptide text is derived from it. The star is where a group is joined. Boc = CC(C)(C)OC(=O)*; tBu = CC(C)(C)*
reportedProperty: TGI

[
  {
    "molecule": "COC(=O)C1=Nc2ccc(F)cc2/C1=C/c1sc(=S)[nH]c1O",
    "targetDesc": "T-47D breast",
    "observedValue": "> 100 µM"
  },
  {
    "molecule": "CC(=O)O[C@H]1C[C@H]2[C@@H]([C@H](OC(C)=O)C[C@@H]3CC4(CC[C@@]32C)OOC2(CCCCC2)OO4)[C@@H]2CC[C@H]([C@H](C)CCC(=O)O)[C@@]12C",
    "targetDesc": "T-47D breast",
    "observedValue": "45.7 µM"
  },
  {
    "molecule": "COC(=O)c1ccccc1/C=C1\\Cc2ccc3ccccc3c2C1C (stereo not drawn)",
    "targetDesc": "T-47D breast",
    "observedValue": "69 µM"
  },
  {
    "molecule": "CC(=O)OC1COC(Oc2c(C)c3c4c(c2O)[C@@H](C)CC[C@@H]4[C@@H](C)C[C@H]3C=C(C)C)C(O)C1O (stereo partly drawn)",
    "targetDesc": "T-47D breast",
    "observedValue": "> 100 µM"
  },
  {
    "molecule": "Nc1ccn([C@@H]2S[C@H](CO)[C@@H](O)[C@@H]2F)c(=O)n1",
    "targetDesc": "T-47D breast",
    "observedValue": "> 100 µM"
  },
  {
    "molecule": "O=C(Nc1ccc(Cl)c(C(F)(F)F)c1)C(=O)c1c(O)c2ccccc2oc1=O",
    "targetDesc": "T-47D breast",
    "observedValue": "> 100 µM"
  },
  {
    "molecule": "O=C1C2C(C(=O)N1CC[Se][Se]CCN1C(=O)C3C(C1=O)[C@H]1C=C[C@@H]3C1)[C@H]1C=C[C@@H]2C1 (stereo partly drawn)",
    "targetDesc": "T-47D breast",
    "observedValue": "5.42 µM"
  },
  {
    "molecule": "CC(=O)O[C@H]1C[C@@H](OC(C)=O)[C@@](C)(O)[C@@H]2[C@@H](OC(C)=O)[C@@]3(O)[C@H](/C=C(/CCl)[C@H]4O[C@H]4[C@@H](OC(C)=O)[C@@]12C)OC(=O)[C@@H]3C",
    "targetDesc": "T-47D breast",
    "observedValue": "> 25 µM"
  },
  {
    "molecule": "CC(=O)N1c2ccccc2[C@H]2CCc3c([nH]c4ccccc34)[C@H]21",
    "targetDesc": "T-47D breast",
    "observedValue": "96.9 µM"
  },
  {
    "molecule": "COc1cccc(-c2[nH]c3cc4c(cc3c(=O)c2C(=O)O)OCO4)c1",
    "targetDesc": "T-47D breast",
    "observedValue": "> 100 µM"
  },
  {
    "molecule": "CC(OC(C)(C)C)C(NC(=O)C(N)CCCCNC(=O)OC(C)(C)C)C(=O)NC(Cc1ccccc1)C(=O)O (stereo not drawn) (H-Lys(Boc)-Thr(tBu)-Phe-OH; configuration not given here)",
    "targetDesc": "T-47D breast",
    "observedValue": "> 100 µM"
  },
  {
    "molecule": "N#Cc1cccc(C2C3=C(COC3=O)N(CCO)c3cc4c(cc32)CCC4)c1 (stereo not drawn)",
    "targetDesc": "T-47D breast",
    "observedValue": "> 50 µM"
  },
  {
    "molecule": "Cc1cc(-c2ccco2)cc(C)c1/C=C/c1cncc(-c2nn[nH]n2)c1",
    "targetDesc": "T-47D breast",
    "observedValue": "> 25 µM"
  },
  {
    "molecule": "O=C1c2ccccc2-n2c1nc1ccc(Cl)cc1c2=O",
    "targetDesc": "T-47D breast",
    "observedValue": "> 100 µM"
  },
  {
    "molecule": "CO/C(=N\\N=C(/c1ccccc1)C(F)(F)F)c1ccncc1",
    "targetDesc": "T-47D breast",
    "observedValue": "> 100 µM"
  },
  {
    "molecule": "CCc1c(C#N)c(SC(C(N)=O)c2ccccc2)nc(N2CCC(N)CC2)c1C#N (stereo not drawn)",
    "targetDesc": "T-47D breast",
    "observedValue": "31.8 µM"
  },
  {
    "molecule": "CC(=O)Oc1ccc(/C=C/C(=O)NCCOC(=O)/C=C/c2ccc(OC(C)=O)c(OC(C)=O)c2)cc1OC(C)=O",
    "targetDesc": "T-47D breast",
    "observedValue": "98.9 µM"
  },
  {
    "molecule": "Cc1cc(C)c(S(=O)(=O)N(CCCN)OCCCN)c(C)c1",
    "targetDesc": "T-47D breast",
    "observedValue": "> 100 µM"
  }
]

From: PubChem BioAssay (NCI)
